# experimental target: Polyadenylate-binding protein 1 (Homo sapiens) (UniProt P11940)
# Sequence (P11940 whole entry, looked up): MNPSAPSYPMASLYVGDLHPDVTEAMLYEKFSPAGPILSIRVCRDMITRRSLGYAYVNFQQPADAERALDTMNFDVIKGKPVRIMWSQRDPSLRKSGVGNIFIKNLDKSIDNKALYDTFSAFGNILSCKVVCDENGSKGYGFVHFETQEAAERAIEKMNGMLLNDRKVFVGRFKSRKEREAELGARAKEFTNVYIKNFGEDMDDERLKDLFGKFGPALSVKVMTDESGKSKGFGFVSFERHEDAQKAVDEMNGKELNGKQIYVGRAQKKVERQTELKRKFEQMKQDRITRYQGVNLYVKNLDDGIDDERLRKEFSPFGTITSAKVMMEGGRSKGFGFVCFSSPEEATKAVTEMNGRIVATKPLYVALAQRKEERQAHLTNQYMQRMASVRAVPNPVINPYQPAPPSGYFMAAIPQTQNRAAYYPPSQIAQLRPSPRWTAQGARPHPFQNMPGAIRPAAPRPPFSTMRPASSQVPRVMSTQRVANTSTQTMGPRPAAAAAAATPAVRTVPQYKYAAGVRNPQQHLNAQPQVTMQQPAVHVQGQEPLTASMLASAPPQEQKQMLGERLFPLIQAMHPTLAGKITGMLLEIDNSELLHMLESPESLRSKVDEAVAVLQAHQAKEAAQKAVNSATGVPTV
# run description: PABP poly(A) RNA binding inhibitors, primary screen, biochemical, fluorescence polarization, uHTS (AID 2014);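 further: calls also rest on retests at 20 µM and on dose response follow-up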
# run conditions: at 35 µM
The whole screen tested about 290,000 compounds, of which about 3,000 (1%) were called active. How the calls were made is not given here. Only a selection was taken, and actives are over-represented in it overall.
Labels: active, inactive

• CCOCCc1nn2c(=O)cc(CSCC(=O)Nc3cccc(C)c3C)nc2s1 = inactive
• O=C(C[n+]1ccccc1)N/N=C/c1ccc(O)cc1 = inactive
• Cc1cccc(C)c1NC(=O)CSc1nc2c([nH]1)c(=O)n(C)c(=O)n2C = inactive
• CS(=O)(=O)N1CCN=C1SCc1ccc(F)cc1 = inactive
• CCc1ccc(CNC(=O)C2CCN(c3nnc(C)c4c(C)n(-c5ccc(C)cc5)nc34)CC2)cc1 = inactive
• COc1ccccc1CN1CC(C(=O)NCCc2cn[nH]c2)CCC1=O (stereo unspecified) = inactive
• O=C(NCCCc1ccccc1)C1CCC(=O)N(CCc2ccc(Cl)cc2)C1 (stereo unspecified) = inactive
• Cc1cc(NC(=O)CN2CCCC(C)C2)n(-c2nc3ccccc3s2)n1 (stereo unspecified) = inactive
• COc1ccc(-c2cc(C(=O)N3CCN(Cc4ccc5c(c4)OCO5)CC3)on2)cc1OC = inactive
• C/C(=N\NC(=O)CC(C)C)c1c(C(F)(F)F)[nH]n(-c2nc3ccccc3s2)c1=O = inactive
• O=C(c1c(F)cccc1F)N1CCN(c2ncc(Br)cn2)CC1 = inactive
• O=C(NCC(=O)N1CCN(c2ncc(C(F)(F)F)cc2Cl)CC1)c1ccc(Br)o1 = inactive
• NS(=O)(=O)c1cccc(NC(=O)CC23CC4CC(CC(Br)(C4)C2)C3)c1 = inactive
• CCOc1cc(C2/C(=C(/O)c3ccc(S(=O)(=O)N4CCCCC4)cc3)C(=O)C(=O)N2CCOC)ccc1O (stereo unspecified) = inactive
• Cc1ccc(Cn2c(C)nc3c(c2=O)c2nc4ccccc4nc2n3Cc2ccco2)cc1 = inactive
• CCC(C)Cn1c(O)cc2nn(-c3nc4ccccc4s3)c(=O)c-2c1C (stereo unspecified) = active
• COCC(=O)N1CCc2ccc(NC(=O)c3ccccc3Cl)cc2C1 = inactive
• Nc1nnn(CC(=O)N/N=C/c2ccc(O)cc2)n1 = inactive
• CCOc1ccc(N(C(=O)c2snc(C(N)=O)c2N)C(C(=O)NCC2CCCO2)c2c[nH]c3ccccc23)cc1 (stereo unspecified) = inactive
• CCOc1ccc(N(CC)S(=O)(=O)c2cccc3nsnc23)cc1 = inactive
• CC1CCN(S(=O)(=O)c2ccc3c(c2)n(C)c(=O)n3C)CC1 = inactive
